SYSTEM_NAME: GSPT1 (Homo sapiens, UniProt P15170+Q96SW2)
Sequence (P15170 whole entry, one chain of several): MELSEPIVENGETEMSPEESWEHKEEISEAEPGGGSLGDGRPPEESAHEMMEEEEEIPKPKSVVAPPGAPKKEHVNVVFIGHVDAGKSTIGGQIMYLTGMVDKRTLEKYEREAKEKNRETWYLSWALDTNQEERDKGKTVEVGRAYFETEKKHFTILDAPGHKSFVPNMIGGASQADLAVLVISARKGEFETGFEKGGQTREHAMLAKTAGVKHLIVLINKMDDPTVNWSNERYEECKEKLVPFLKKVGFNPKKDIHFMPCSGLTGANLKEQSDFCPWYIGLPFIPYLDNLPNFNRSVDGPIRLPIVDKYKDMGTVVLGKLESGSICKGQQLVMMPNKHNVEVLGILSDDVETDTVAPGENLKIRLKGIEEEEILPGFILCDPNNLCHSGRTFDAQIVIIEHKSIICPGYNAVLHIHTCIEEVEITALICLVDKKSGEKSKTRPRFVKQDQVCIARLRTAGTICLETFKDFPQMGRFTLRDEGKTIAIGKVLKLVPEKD
PROTOCOL_SUMMARY: HiBiT degradation assay, GSPT1, Procedure B (Molt 4_hGSPT1_HiBIT cells)
Format: cell-based
Design: Molt 4_hGSPT1_HiBIT N-terminus tagged cells were generated using CRISPR technology; endogenous in cells; host or cells: Molt 4 cells, CRISPR-edited
STUDY_CONDITIONS: six hours
PROPERTY_NAME: DC50

For the compound shown here, Cn1cc(-c2ccc3c(c2)CN(C2CCC(=O)NC2=O)C3=O)nc1C12CCC(CC1)CC2 (centres unmarked) , give the reported DC50.
≥ 25 nM

Reported DC50, compound Cn1cc(-c2ccc3c(c2)CN(C2CCC(=O)NC2=O)C3=O)nc1-c1ccc2ccccc2c1 (centres unmarked) : ____
< 25 nM

Entry Cn1cc(-c2ccc3c(c2)CN(C2CCC(=O)NC2=O)C3=O)nc1-c1cc(F)ccc1Cl (centres unmarked) has what DC50?
≥ 25 nM

For the compound Cc1cccc(-c2nc(-c3ccc4c(c3)CN(C3CCC(=O)NC3=O)C4=O)cn2C)c1C (centres unmarked) , what DC50 is on record?
< 25 nM

Can you share its DC50? I mean this compound: Cc1ccc(-c2nc(-c3ccc4c(c3)CN(C3CCC(=O)NC3=O)C4=O)cn2C)c(F)c1 (centres unmarked)
≥ 25 nM

Requested field: DC50. Item: Cn1ncc(-c2ccc3c(c2)CN(C2CCC(=O)NC2=O)C3=O)c1C1CCC(F)(F)CC1 (centres unmarked)
≥ 25 nM

Please give the measured DC50 for this compound: Cn1cc(-c2ccc3c(c2)CN(C2CCC(=O)NC2=O)C3=O)nc1[C@H]1CC[C@H](C)CC1 (some centres unmarked)
< 25 nM

Which DC50 value is on record for Cn1cc(-c2ccc3c(c2)CN(C2CCC(=O)NC2=O)C3=O)nc1-c1ccccc1Cl (centres unmarked) ?
≥ 25 nM

----------
SYSTEM_NAME: GSPT1 (Homo sapiens, UniProt P15170+Q96SW2)
PROTOCOL_SUMMARY: HiBiT degradation assay, GSPT1, Procedure B (Molt 4_hGSPT1_HiBIT cells)
Type: cell-based
Set-up: Molt 4_hGSPT1_HiBIT N-terminus tagged cells were generated using CRISPR technology; endogenous in cells; host or cells: Molt 4 cells, CRISPR-edited
STUDY_CONDITIONS: six hours
PROPERTY_NAME: DC50

Sample Cn1nc(-c2ccc3c(c2)CN(C2CCC(=O)NC2=O)C3=O)nc1N1[C@@H]2CCC[C@H]1CC2 (some centres unmarked) [Example 706] — what was its DC50?
≥ 0.025 µM

GET /values?readout=DC50&item= CC(C)c1cn(-c2ccccc2)c(-c2ccc3c(c2)CN(C2CCC(=O)NC2=O)C3=O)n1 (centres unmarked) [Example 731]
< 0.025 µM

Dear colleague, I am looking for the recorded DC50 of the following molecule: Cn1ncc(-c2ccc3c(c2)CN(C2CCC(=O)NC2=O)C3=O)c1C1=CCOCC1 (centres unmarked) [Example 693]
≥ 0.025 µM

Any idea what DC50 was measured for Cn1cc(-c2ccc3c(c2)CN(C2CCC(=O)NC2=O)C3=O)nc1-c1ccsc1 (centres unmarked) [Example 664] ?
≥ 0.025 µM

Could you share which DC50 value was measured for Cn1cc(-c2ccc3c(c2)CN(C2CCC(=O)NC2=O)C3=O)nc1-c1cccs1 (centres unmarked) [Example 646] ?
≥ 0.025 µM

// returns reported DC50 for input Cn1cc(-c2ccc3c(c2)CN(C2CCC(=O)NC2=O)C3=O)nc1-c1ccc(F)c(F)c1 (centres unmarked) [Example 628]
≥ 0.025 µM

Record request: DC50 value, item COc1cc(Cl)ccc1-c1nc(-c2ccc3c(c2)CN(C2CCC(=O)NC2=O)C3=O)cn1C (centres unmarked) [Example 638]
< 0.025 µM

Which DC50 is listed for Cn1cc(-c2ccc3c(c2)CN(C2CCC(=O)NC2=O)C3=O)nc1C12CCN(CC1)CC2 (centres unmarked) [Example 719] ?
≥ 0.025 µM

----------
SYSTEM_NAME: GSPT1 (Homo sapiens, UniProt P15170+Q96SW2)
PROTOCOL_SUMMARY: HiBiT degradation assay, GSPT1, Procedure A
Assay type: cell-based
Set-up: HiBit-GSPT1 KI HEK293(LgBit) Cells; host or cells: HEK293(LgBit) knock-in cells
STUDY_CONDITIONS: six hours incubation
For each of the compounds below, state its DC50.

What is its DC50 for GSPT1 (Homo sapiens, UniProt P15170+Q96SW2)? Entry: CN1CCN(c2ccc(-c3c(-c4ccc5c(c4)CN(C4CCC(=O)NC4=O)C5=O)cnn3C)cc2)CC1 (centres unmarked)
≥ 25 nM

Provide value of DC50 for this record tested with GSPT1 (Homo sapiens, UniProt P15170+Q96SW2): Cn1cnc(-c2ccc3c(c2)CN(C2CCC(=O)NC2=O)C3=O)c1-c1ccsc1 (centres unmarked)
< 25 nM

Give DC50 (GSPT1 (Homo sapiens, UniProt P15170+Q96SW2)) of the following compound: Cc1cncc(-c2c(-c3ccc4c(c3)CN(C3CCC(=O)NC3=O)C4=O)cnn2C)c1 (centres unmarked)
≥ 25 nM

For GSPT1 (Homo sapiens, UniProt P15170+Q96SW2), provide DC50 of Cc1cc(Cl)ccc1-c1c(-c2ccc3c(c2)CN(C2CCC(=O)NC2=O)C3=O)ncn1C (centres unmarked) please.
< 25 nM

What DC50 appears in the records for this compound with GSPT1 (Homo sapiens, UniProt P15170+Q96SW2)? Cc1ccc(-c2c(-c3ccc4c(c3)CN(C3CCC(=O)NC3=O)C4=O)ncn2C)c(C#N)c1 (centres unmarked)
≥ 25 nM

Param readout= DC50; system= GSPT1 (Homo sapiens, UniProt P15170+Q96SW2); entry= Cn1ncc(-c2ccc3c(c2)CN(C2CCC(=O)NC2=O)C3=O)c1-c1cccnc1 (centres unmarked) ; returns value.
≥ 25 nM

Reported DC50 for GSPT1 (Homo sapiens, UniProt P15170+Q96SW2), given Cc1cccc(-c2c(-c3ccc4c(c3)CN(C3CCC(=O)NC3=O)C4=O)ncn2C)c1C (centres unmarked) ?
< 25 nM

Report DC50 for O=C1CCC(N2Cc3cc(-c4cn(-c5ccccc5)cn4)ccc3C2=O)C(=O)N1 (centres unmarked) tested on GSPT1 (Homo sapiens, UniProt P15170+Q96SW2).
< 25 nM

----------
SYSTEM_NAME: CK1α (Homo sapiens, UniProt P48729+Q96SW2)
Construct: CSNK1A1-HiBit KI HEK293(LgBit) Cells; host or cells: HEK293(LgBit) knock-in cells
Sequence (P48729 whole entry): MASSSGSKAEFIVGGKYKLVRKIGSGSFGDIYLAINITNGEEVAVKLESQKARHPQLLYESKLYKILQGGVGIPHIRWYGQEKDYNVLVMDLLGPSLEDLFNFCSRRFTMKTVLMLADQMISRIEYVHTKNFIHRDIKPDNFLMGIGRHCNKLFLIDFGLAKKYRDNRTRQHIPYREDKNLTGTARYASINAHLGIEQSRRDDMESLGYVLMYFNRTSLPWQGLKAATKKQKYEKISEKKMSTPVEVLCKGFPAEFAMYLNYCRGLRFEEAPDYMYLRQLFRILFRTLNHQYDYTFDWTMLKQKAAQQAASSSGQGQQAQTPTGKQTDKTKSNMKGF
Sequence (Q96SW2 whole entry): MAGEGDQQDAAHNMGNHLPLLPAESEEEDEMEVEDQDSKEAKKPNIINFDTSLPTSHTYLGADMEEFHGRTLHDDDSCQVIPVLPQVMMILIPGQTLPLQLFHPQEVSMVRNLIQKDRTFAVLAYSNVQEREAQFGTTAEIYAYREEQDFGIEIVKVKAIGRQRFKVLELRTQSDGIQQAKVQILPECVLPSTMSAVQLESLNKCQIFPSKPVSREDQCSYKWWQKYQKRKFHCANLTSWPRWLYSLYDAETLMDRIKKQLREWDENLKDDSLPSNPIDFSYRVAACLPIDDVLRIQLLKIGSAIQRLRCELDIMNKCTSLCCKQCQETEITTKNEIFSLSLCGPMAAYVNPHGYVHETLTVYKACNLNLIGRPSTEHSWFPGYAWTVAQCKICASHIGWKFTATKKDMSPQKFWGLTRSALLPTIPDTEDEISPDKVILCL
Sequence (Q16531 whole entry partner): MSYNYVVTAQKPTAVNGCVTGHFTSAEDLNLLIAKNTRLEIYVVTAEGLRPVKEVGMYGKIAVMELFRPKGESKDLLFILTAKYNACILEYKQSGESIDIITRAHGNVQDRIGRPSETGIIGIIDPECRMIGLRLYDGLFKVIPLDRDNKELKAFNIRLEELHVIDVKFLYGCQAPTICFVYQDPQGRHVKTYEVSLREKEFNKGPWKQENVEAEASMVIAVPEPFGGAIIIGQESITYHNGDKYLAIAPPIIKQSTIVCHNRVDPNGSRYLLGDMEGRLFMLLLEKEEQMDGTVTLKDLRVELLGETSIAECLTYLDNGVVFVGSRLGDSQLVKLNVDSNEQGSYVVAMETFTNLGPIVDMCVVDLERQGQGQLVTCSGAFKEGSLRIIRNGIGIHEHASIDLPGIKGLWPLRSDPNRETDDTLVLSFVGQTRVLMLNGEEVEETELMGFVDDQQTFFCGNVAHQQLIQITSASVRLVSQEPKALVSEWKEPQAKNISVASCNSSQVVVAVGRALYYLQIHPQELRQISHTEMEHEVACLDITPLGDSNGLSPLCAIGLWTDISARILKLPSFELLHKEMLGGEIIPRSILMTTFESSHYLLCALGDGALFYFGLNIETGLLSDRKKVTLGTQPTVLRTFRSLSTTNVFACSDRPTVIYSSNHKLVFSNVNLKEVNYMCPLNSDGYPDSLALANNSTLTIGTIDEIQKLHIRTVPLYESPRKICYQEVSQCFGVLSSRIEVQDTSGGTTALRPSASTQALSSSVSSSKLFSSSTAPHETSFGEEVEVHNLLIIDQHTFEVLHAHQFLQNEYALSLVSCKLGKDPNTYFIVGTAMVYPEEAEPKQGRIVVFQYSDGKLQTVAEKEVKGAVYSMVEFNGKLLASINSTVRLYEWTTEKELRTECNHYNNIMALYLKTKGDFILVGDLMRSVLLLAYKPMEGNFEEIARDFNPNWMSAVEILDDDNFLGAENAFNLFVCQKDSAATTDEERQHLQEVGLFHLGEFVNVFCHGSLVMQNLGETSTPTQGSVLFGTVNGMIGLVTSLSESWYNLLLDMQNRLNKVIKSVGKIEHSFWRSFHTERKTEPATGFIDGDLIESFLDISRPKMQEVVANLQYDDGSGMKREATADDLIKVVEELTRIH
PROTOCOL_SUMMARY: HiBiT degradation assay, CK1α, Procedure A
Assay type: cell-based
STUDY_CONDITIONS: six hours incubation
Hi there, I'd appreciate the recorded DC50 for every entry that follows.

Find the recorded DC50 belonging to Cn1ncc(-c2ccc3c(c2)CN(C2CCC(=O)NC2=O)C3=O)c1-c1ccc2c(c1)OCC2 (stereo not shown) [Example 155] and report it.
< 25 nM

What value of measured DC50 is listed for Cn1cnc(-c2ccc3c(c2)CN(C2CCC(=O)NC2=O)C3=O)c1-c1cccc2c1CCC2 (stereo not shown) [Example 301] ?
< 25 nM

Request the reported DC50 associated with Cc1cc(C#N)ccc1-c1c(-c2ccc3c(c2)CN(C2CCC(=O)NC2=O)C3=O)ncn1C (stereo not shown) [Example 180]
≥ 25 nM

Please give the measured DC50 for this compound: Cc1ccc(-c2c(-c3ccc4c(c3)CN(C3CCC(=O)NC3=O)C4=O)cnn2C)cc1CO (stereo not shown) [Example 157]
≥ 25 nM

Recorded DC50 of CC(C)Cn1cnc(-c2ccc3c(c2)CN(C2CCC(=O)NC2=O)C3=O)c1-c1ccccc1 (stereo not shown) [Example 22] , please.
< 25 nM

Can you look up the measured DC50 of Cn1cnc(-c2ccc3c(c2)CN(C2CCC(=O)NC2=O)C3=O)c1-c1cc(F)cc(C#N)c1 (stereo not shown) [Example 185] for me?
< 25 nM

Form field: reported DC50 of Cn1cnc(-c2ccc3c(c2)CN(C2CCC(=O)NC2=O)C3=O)c1C1CC1 (stereo not shown) [Example 316]
< 25 nM

# input compound: Cn1ncc(-c2ccc3c(c2)CN(C2CCC(=O)NC2=O)C3=O)c1-c1ccc(Cl)c(F)c1 (stereo not shown) [Example 90] ; wanted: its DC50
< 25 nM

What does the data say about its DC50? Entry: Cn1ncc(-c2ccc3c(c2)CN(C2CCC(=O)NC2=O)C3=O)c1-c1cc(F)ccc1F (stereo not shown) [Example 77]
< 25 nM

So what does the record say about DC50 for Cc1occc1-c1c(-c2ccc3c(c2)CN(C2CCC(=O)NC2=O)C3=O)cnn1C (stereo not shown) [Example 364] ?
≥ 25 nM

So what does the record say about DC50 for Cc1cccc(-c2c(-c3ccc4c(c3)CN(C3CCC(=O)NC3=O)C4=O)cnn2C)c1 (stereo not shown) [Example 76] ?
< 25 nM

Query (compound): CN1CCN(c2ccc(-c3c(-c4ccc5c(c4)CN(C4CCC(=O)NC4=O)C5=O)ncn3C)cc2)CC1 (stereo not shown) [Example 355] ; field requested: DC50
< 25 nM

Endpoint output: DC50 of O=C1CCC(N2Cc3cc(-c4ccnn4-c4ccccc4)ccc3C2=O)C(=O)N1 (stereo not shown) [Example 6] . Value?
≥ 25 nM

What value of DC50 has been recorded for this entry: Cc1ccc(-c2c(-c3ccc4c(c3)CN(C3CCC(=O)NC3=O)C4=O)ncn2C)c(F)c1 (stereo not shown) [Example 239]
< 25 nM

Looking for the measured DC50 of Cn1ncc(-c2ccc3c(c2)CN(C2CCC(=O)NC2=O)C3=O)c1-c1ccsc1Cl (stereo not shown) [Example 131] , can you help?
< 25 nM

Name the reported DC50 value associated with the compound Cn1cnc(-c2ccc3c(c2)CN(C2CCC(=O)NC2=O)C3=O)c1-c1cnn2ccccc12 (stereo not shown) [Example 331]
< 25 nM

Data provenance is patent US20240158370A1.
